Tested on: Fibroblast
experimental_protocol: Multiplex assay against human fibroblast
Assay type: toxicity, cell-based
measurement_context: 24 h, 1 µM, compound concentration 1 uM, replicate 2
value_type: Population Mitotic Cells (%)
Numbers only here, please. The scale is %.

NC(=O)c1cccc(-c2cc(Nc3ccc(OC(F)(F)F)cc3)ncn2)c1; 50
CN1CCN(C(=O)C(C)(C)c2ccc(C(=O)Nc3cn4cc(-c5cc(C(C)(C)C)cc(C(C)(C)C)c5)ccc4n3)cc2)CC1; 60
CCCn1c(=O)c2[nH]c(-c3cnn(Cc4cccc(C(F)(F)F)c4)c3)nc2n(CC)c1=O; 50
COc1cc2ncnc(Nc3ccc(F)c(Cl)c3)c2cc1NC(=O)/C=C/CN1CCCCC1 [DACOMITINIB ANHYDROUS]; 0
Cn1nc(C(F)(F)F)cc1-c1cnc(N2CCc3cc(S(=O)(=O)Nc4c(F)cc(Cl)cc4F)cc(N4CCCC4=O)c32)nc1; 42
CCn1c(=O)c(-c2ccc(-c3cncs3)cc2Cl)cc2cnc(Nc3ccc(N4CCN(C)CC4)cc3)nc21; 53

Per the record, O=C(Nc1ccc(-c2ccnc(Nc3ccc(N4CCOCC4)cc3)n2)cc1)[C@@H]1CCCN1 has Population Mitotic Cells (%) of 40

Per the record, CNc1cc(Oc2cc(C(=O)Nc3cc(N4CCN(C)CC4)cc(C(F)(F)F)c3)ccc2C)ncn1 has Population Mitotic Cells (%) of 50
